The origin of these recorded values is patent US20260345507A1.

# assay.summary: Pharmacokinetics of 5-lipid LNP (DOTAP by LC-MS/MS)
# Type: in vivo, mouse
# protocol.conditions: mouse, 1 mg/kg; Lung Right Lobes; 5-lipid LNP of Table 1, CD1 male mice, 1.0 mg mRNA/kg
assay.metric: half-life (min)
Answers are plain numbers, in min.

half-life reading for CCCCCCCC/C=C\CCCCCCCC(=O)OCC(C[N+](C)(C)C)OC(=O)CCCCCCC/C=C\CCCCCCCC (stereo not shown) : 571

* * *

# assay.summary: Pharmacokinetics of 5-lipid LNP (DOTAP by LC-MS/MS)
# Type: in vivo, mouse
# protocol.conditions: mouse, 1 mg/kg; Plasma; 5-lipid LNP of Table 1, CD1 male mice, 1.0 mg mRNA/kg
assay.metric: half-life

Memo: CCCCCCCC/C=C\CCCCCCCC(=O)OCC(C[N+](C)(C)C)OC(=O)CCCCCCC/C=C\CCCCCCCC (stereo not shown) [DOTAP, 1,2-dioleoyl-3-trimethylammonium-propane] , reported half-life: 3.63 h

* * *

# assay.summary: Pharmacokinetics of 5-lipid LNP (DOTAP by LC-MS/MS)
# Format: in vivo, mouse
# protocol.conditions: mouse, 1 mg/kg; Liver Left Lobe; dosed as 5-lipid LNP of Table 1, CD1 male mice, 1.0 mg mRNA/kg
# Procedure: Methods: LNPs were formulated using lipid molar ratios in Table 1 with mRNA encoding human telomerase. CD1 male mice were dosed at 1.0 mg mRNA/kg of body weight, and plasma and tissue were collected at time points 0 (<5 min) and 24 hours. DOTAP was measured using LC-MS/MS. mRNA was measured by qRT-PCR. “Liver Rest” is the liver sample excluding the left lobe.
assay.metric: half-life (h)
Give bare numbers, in h.

Item: CCCCCCCC/C=C\CCCCCCCC(=O)OCC(C[N+](C)(C)C)OC(=O)CCCCCCC/C=C\CCCCCCCC (stereo not shown) [DOTAP, 1,2-dioleoyl-3-trimethylammonium-propane] | half-life: 10.5
